B1: NEK8 (parent)
chain: YTFGSNQHGQLGTNTRRGSRAPCK

- Variants of: B1
- TEST_DESCRIPTION: protein stability index of a GFP-peptide fusion (GPS, HEK-293T) (PSI 1-6); higher = more stable;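 further: lentivirally expressed fusions sorted by FACS into six bins by GFP to DsRed ratio, PSI derived from sequencing read proportions per bin multiplied by bin number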
- STATED_CONDITIONS: c terminus: a fixed tail appended
ATTRIBUTE_MEASURED: protein stability index
Just the number.

### Prompt I would be grateful if you could share the reported protein stability index for N6P .
### Response 4.07

### Prompt I would be grateful if you could share the reported protein stability index for T15K .
### Response 3.94

### Prompt I would be grateful if you could share the reported protein stability index for S19H .
### Response 3.95

### Prompt I would be grateful if you could share the reported protein stability index for G4H .
### Response 3.91

### Prompt I would be grateful if you could share the reported protein stability index for C23P .
### Response 3.89

### Prompt I would be grateful if you could share the reported protein stability index for G12S .
### Response 3.97

### Prompt I would be grateful if you could share the reported protein stability index for R20N .
### Response 4.05

### Prompt I would be grateful if you could share the reported protein stability index for C23L .
### Response 3.91

### Prompt I would be grateful if you could share the reported protein stability index for S19R .
### Response 3.91
